Test system: HIV-IIIb
experiment.notes: Test A: Antiviral Assays in MT4 Cells
Assay type: cell-based
assay.setup: Human immunodeficiency virus 1, IIIB, MT4, 120 h, MT-4 cells infected with HIV-IIIb (0.004 m.o.i.), 5 days of incubation, CellTiter-Glo chemiluminescence readout; read-out: EC50
pEC50: −log10 of the molar value.
Class (required): determined from pEC50; valid ranges are 1 (below 6), 2 (6 to below 7), 3 (7 or more)

1) Cc1cc2ccc(CCC3CCCC3)cc2c(-c2ccc(Cl)cc2)c1C(OC(C)(C)C)C(=O)O (stereo not shown) [Compound 90] :: 1
2) COCc1cc2ccccc2c(-c2ccc(Cl)cc2)c1[C@H](OC(C)(C)C)C(=O)O [Compound 28] :: 2
3) Cc1cc2cc(C#N)c(F)cc2c(-c2ccc3c4c(ccnc24)CCO3)c1[C@H](OC(C)(C)C)C(=O)O (atropisomer, axis not shown) [Compound 169] :: 1
4) COc1cccc2c(-c3ccc(Cl)cc3)c(C(OC(C)(C)C)C(=O)O)c(C)cc12 (stereo not shown) [Compound 34] :: 2
5) Cc1cc2ccc(Cl)cc2c(-c2ccc(Cl)cc2)c1C(OC(C)(C)C)C(=O)O (stereo not shown) [Compound 149] :: 2
6) Cc1cc2ccccc2c(-c2ccc(F)c3cccnc23)c1[C@H](OC(C)(C)C)C(=O)O [Compound 10] :: 1
7) Cc1cc2ccc(C#CC(C)(C)C)cc2c(-c2ccc(Cl)cc2)c1C(OC(C)(C)C)C(=O)O (stereo not shown) [Compound 72] :: 1
8) Cc1c(C(OC(C)(C)C)C(=O)O)c(-c2ccc(Cl)cc2)c2ccccc2c1-c1ccc(N)nc1 (stereo not shown) [Compound 143] :: 3
9) CCc1c(C)c(C(OC(C)(C)C)C(=O)O)c(-c2ccc(Cl)cc2)c2ccccc12 (stereo not shown) [Compound 129] :: 2
10) CCc1cc2ccccc2c(-c2ccc(Cl)cc2)c1[C@H](OC(C)(C)C)C(=O)O [Compound 29B] :: 2
11) Cc1ccc2c(-c3ccc(Cl)cc3)c(C(OC(C)(C)C)C(=O)O)c(C)cc2c1 (stereo not shown) [Compound 58] :: 3
12) Cc1cc2ccccc2c(-c2cnc3ccccc3c2)c1[C@H](OC(C)(C)C)C(=O)O [Compound 16] :: 1
13) C=Cc1c(C)c(C(OC(C)(C)C)C(=O)O)c(-c2ccc(Cl)cc2)c2ccccc12 (stereo not shown) [Compound 128] :: 1
14) Cc1cc2ccccc2c(C2=CCCCC2)c1[C@H](OC(C)(C)C)C(=O)O [Compound 8] :: 3
15) CC(C)(C)O[C@H](C(=O)O)c1c(CO)cc2ccccc2c1-c1ccc(Cl)cc1 [Compound 30] :: 3
16) Cc1cc2ccc(C#CC(C)(C)N(C)C)cc2c(-c2ccc(Cl)cc2)c1C(OC(C)(C)C)C(=O)O (stereo not shown) [Compound 95] :: 2
17) Cc1cc2cc(-c3cn(C)cn3)ccc2c(-c2ccc(Cl)cc2)c1[C@H](OC(C)(C)C)C(=O)O [Compound 64] :: 3
18) Cc1cc2ccccc2c(-c2ccc(C(F)(F)F)c3cccnc23)c1[C@H](OC(C)(C)C)C(=O)O [Compound 175] :: 1
19) Cc1cc2cc(Cl)ccc2c(-c2ccc3c4c(ccnc24)CCO3)c1[C@@H](OC(C)(C)C)C(=O)O (atropisomer, axis not shown) [Compound 177] :: 1
20) Cc1ccc2cc(C)c(C(OC(C)(C)C)C(=O)O)c(-c3ccc(Cl)cc3)c2c1 (stereo not shown) [Compound 78] :: 2
21) Cc1ccc2ccc(F)c(-c3c([C@H](OC(C)(C)C)C(=O)O)c(C)cc4ccccc34)c2n1 [Compound 17] :: 1

----------
Listing of recorded pEC50 by entry.
Test system: HIV-IIIb
experiment.notes: Test A: Antiviral Assays in MT4 Cells
Type: cell-based
assay.setup: Human immunodeficiency virus 1, IIIB, MT4, 120 h, MT-4 cells infected with HIV-IIIb (0.004 m.o.i.), 5 days of incubation, CellTiter-Glo chemiluminescence readout; read-out: EC50
Procedure: Test A: Antiviral Assays in MT4 Cells […] Assay plates were then incubated in a 37° C. incubator. […] Cell lysis was carried out by incubating at room temperature for 2-3 min and then chemiluminescence was read using the Envision reader (PerkinElmer).
pEC50: −log10 of the molar value.
attribute.measured: pEC50

1) CN(C)Cc1cc2ccccc2c(-c2ccc(Cl)cc2)c1[C@H](OC(C)(C)C)C(=O)O [Compound 24] :: 4.54
2) Cc1c(C(OC(C)(C)C)C(=O)O)c(-c2ccc(Cl)cc2)c2ccccc2c1CN(C)C (stereo not drawn) [Compound 133] :: 6.91
3) Cc1c(C(OC(C)(C)C)C(=O)O)c(-c2ccc(Cl)cc2)c2ccccc2c1-c1ccc(=O)[nH]c1 (stereo not drawn) [Compound 144] :: 5.89
4) Cc1cc2ccc(CCC(C)(C)O)cc2c(-c2ccc(Cl)cc2)c1C(OC(C)(C)C)C(=O)O (stereo not drawn) [Compound 89] :: 6.55
5) Cc1cc2ccc(C#CC(C)(C)N)cc2c(-c2ccc(Cl)cc2)c1[C@H](OC(C)(C)C)C(=O)O [Compound 98] :: 8.00
6) Cc1cc2ccc(C#CC3(N)CCCCC3)cc2c(-c2ccc(Cl)cc2)c1C(OC(C)(C)C)C(=O)O (stereo not drawn) [Compound 84] :: 7.85
7) Cc1cc2ccc(C#CC(C)(O)c3ccccc3)cc2c(-c2ccc(Cl)cc2)c1C(OC(C)(C)C)C(=O)O (stereo not drawn) [Compound 88] :: 7.62
8) Cc1cc2ccc(C#CC3(O)CCOCC3)cc2c(-c2ccc(Cl)cc2)c1C(OC(C)(C)C)C(=O)O (stereo not drawn) [Compound 80] :: 7.29
9) Cc1cc2cc(F)c(F)cc2c(-c2ccc3c4c(ccnc24)CCO3)c1[C@H](OC(C)(C)C)C(=O)O (atropisomer, axis not shown) [Compound 174] :: 5.49
10) Cc1cc2cc(Cl)ccc2c(-c2ccc(Cl)cc2)c1C(OC(C)(C)C)C(=O)O (racemic) [Compound 67] :: 6.54
11) Cc1cc2cc(-c3cccnc3)ccc2c(-c2ccc(Cl)cc2)c1[C@H](OC(C)(C)C)C(=O)O [Compound 54] :: 7.26
12) Cc1cc2ccc(C#CC3CCCC3)cc2c(-c2ccc(Cl)cc2)c1C(OC(C)(C)C)C(=O)O (stereo not drawn) [Compound 74] :: 5.92
13) Cc1cc2ccc(CC(C)C)cc2c(-c2ccc(Cl)cc2)c1C(OC(C)(C)C)C(=O)O (stereo not drawn) [Compound 94] :: 4.92
14) Cc1cc2ccc(C#CC3(N)CCCCC3)cc2c(-c2ccc(Cl)cc2)c1[C@H](OC(C)(C)C)C(=O)O [Compound 100] :: 7.64
15) Cc1c(C(OC(C)(C)C)C(=O)O)c(-c2ccc(Cl)cc2)c2ccccc2c1-c1cncnc1 (stereo not drawn) [Compound 139] :: 8.00

----------
Tested on: HIV-IIIb
experiment.notes: Test A: Antiviral Assays in MT4 Cells
Assay type: cell-based
assay.setup: Human immunodeficiency virus 1, IIIB, MT4, 120 h, MT-4 cells infected with HIV-IIIb (0.004 m.o.i.), 5 days of incubation, CellTiter-Glo chemiluminescence readout; read-out: EC50
Listed compounds paired with reported log10(EC50)
attribute.measured: log10(EC50) (log10 of the value in µM)

1) CCc1cc2cc(C)c([C@H](OC(C)(C)C)C(=O)O)c(-c3ccc4c5c(ccnc35)CCO4)c2cc1F (atropisomer, axis not shown) :: 1.72
2) Cc1cc2c(F)cc(F)cc2c(-c2ccc3c4c(ccnc24)CCO3)c1[C@H](OC(C)(C)C)C(=O)O (atropisomer, axis not shown) :: 1.70
3) CC(C)=Cc1ccc2cc(C)c(C(OC(C)(C)C)C(=O)O)c(-c3ccc(Cl)cc3)c2c1 (centres unmarked) :: 0.95
4) Cc1cc2cc(Cl)c(F)cc2c(-c2ccc3c4c(ccnc24)CCO3)c1[C@H](OC(C)(C)C)C(=O)O (atropisomer, axis not shown) :: 1.56
5) Cc1cc2ccc(C#CC3(O)CCN(C)CC3)cc2c(-c2ccc(Cl)cc2)c1C(OC(C)(C)C)C(=O)O (centres unmarked) :: -1.05
6) Cc1cc2cc(-c3cncn3C)ccc2c(-c2ccc(Cl)cc2)c1[C@H](OC(C)(C)C)C(=O)O :: -0.72
7) CC(C)(C)O[C@H](C(=O)O)c1c(CN2CCOCC2)cc2ccccc2c1-c1ccc(Cl)cc1 :: 0.54
8) COc1ccc(Cc2c(OC)ccc3c(-c4ccc(Cl)cc4)c(C(OC(C)(C)C)C(=O)O)c(C)cc23)cc1 (centres unmarked) :: -0.19
9) Cc1cc2ccc(C#CC(C)(C)N)cc2c(-c2ccc3c4c(ccnc24)CCO3)c1C(OC(C)(C)C)C(=O)O (centres unmarked) [Compound 86] :: -0.01
10) Cc1cc2ccc(F)cc2c(-c2ccc3c4c(ccnc24)CCO3)c1[C@H](OC(C)(C)C)C(=O)O (atropisomer, axis not shown) :: 1.27
11) Cc1cc2ccccc2c(-c2cccc3cccnc23)c1[C@H](OC(C)(C)C)C(=O)O :: 1.34
12) COc1ccc2c(-c3ccc(Cl)cc3)c(C(OC(C)(C)C)C(=O)O)c(C)cc2c1 (centres unmarked) :: -0.68
13) Cc1cc2ccccc2c(-c2ccc(Cl)cc2Cl)c1C(OC(C)(C)C)C(=O)O (centres unmarked) :: -0.92
14) Cc1c([C@@H](OC(C)(C)C)C(=O)O)c(-c2ccc(Cl)cc2)c2ccccc2c1Br [Compound 150A] :: 1.47
